Hello, the source for this data is paper PMC4618944, in case you need it.

# target.system: curli (CsgA amyloid fibers) (Escherichia coli, UniProt P28307)
# Construct: native curli fibers isolated from MC4100, mature CsgA polymer (sec signal removed; native fibers may contain minor nucleator CsgB); immobilized by amine coupling for SPR
# Sequence (P28307 21-151): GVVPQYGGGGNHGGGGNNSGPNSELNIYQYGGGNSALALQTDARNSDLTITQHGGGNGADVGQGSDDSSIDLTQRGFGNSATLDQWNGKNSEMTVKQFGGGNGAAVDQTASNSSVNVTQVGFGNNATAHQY
# protocol.text: surface plasmon resonance (Biacore […]), curli immobilized on CM5 chip
pKd: −log10 of the molar value.
measure.name: pKd

Nc1c(/N=N/c2ccc(-c3ccc(/N=N/c4cc(S(=O)(=O)O)c5ccccc5c4N)cc3)cc2)cc(S(=O)(=O)O)c2ccccc12 | 5.55
